ASSAY TARGET: human epidermal growth factor receptor 2 (HER2), membrane-bound on cells (human, UniProt P04626 23-1255)
TEST: cell-based or functional assay
MEASURE NAME: % cells killed, AU565, anti-kappa-ETA'-conjugated

IN: Value lookup for % cells killed, AU565, anti-kappa-ETA'-conjugated; key = HuMab 169 (antibody, V domains shown, also called TH1014-169; PC1014-169) VH: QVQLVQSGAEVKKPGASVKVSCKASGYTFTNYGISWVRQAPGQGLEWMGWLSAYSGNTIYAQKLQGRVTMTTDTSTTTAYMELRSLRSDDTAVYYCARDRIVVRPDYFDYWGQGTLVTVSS VL: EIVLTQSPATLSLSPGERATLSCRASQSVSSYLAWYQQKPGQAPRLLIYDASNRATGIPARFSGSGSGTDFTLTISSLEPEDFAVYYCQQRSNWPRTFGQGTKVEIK
OUT: 49.9%
